- Tested on: P. falciparum male gametocytes
- assay-notes: P. falciparum Dual Gamete Formation Assay (PfDGFA), male readout (exflagellation)
- Assay type: cell-based, Plasmodium falciparum NF54
- condition-description: PfDGFA at 2µM, 24h preincubation with gametocytes prior to induction of gametogenesis; replicate R4
readout-type: % inhibition male (individual replicates) R4 (%)
Expressed in %, but write only the number.

Please review the following examples before continuing.
| compound | val |
| --- | --- |
| CN1CCN(c2cc(-c3cccnc3)nc(-c3ccncc3)n2)CC1 | 5.5 |
| CCCC(CC)n1ccc2c3c(N)nc(N)nc3ccc21.CS(=O)(=O)O (centres unmarked) | 12.8 |
| CCCCN(Cc1cc(Cl)c(OC)c(OC)c1)c1ccc(C(O)(C(F)(F)F)C(F)(F)F)cc1.O=C(O)C(F)(F)F | -29.5 |
| COc1ccc(NC(=O)[C@H](Cc2ccccc2)Nc2cc(C)nc(NCCc3ccccn3)n2)cc1.O=C(O)C(F)(F)F | 23.6 |

Next compound, please.
Query string: I would be grateful if you could share the reported % inhibition male (individual replicates) R4 for CC(C)N(Cc1cnc2nc(N)nc(N)c2n1)c1ccc(Cl)c(Cl)c1 .
Result string: -34.5

----------
A collection of molecules and their measured Cytotox ratio Pf Male
- Test system: P. falciparum male gametocytes
- assay-notes: P. falciparum Dual Gamete Formation Assay (PfDGFA), male readout (exflagellation)
- Format: cell-based, Plasmodium falciparum NF54
// no unit, no text: just the number

As a guide, the following entries are already answered.
| molecule | val |
| --- | --- |
| CS(=O)(=O)Cc1ccc(Nc2ncc(Cl)c(Nc3cccnc3C(N)=O)n2)cc1.Cl | 16.0 |
| CCN(CC)CCN(Cc1ccc(-c2ccc(C(F)(F)F)cc2)cc1)C(=O)Cn1cc(Cc2cnn(C)c2)c(=O)nc1/C=C/c1ccc(F)cc1.O=C(O)C(O)C(O)C(=O)O | 17.8 |
| Cc1sc2ncnc(Sc3nnc(N)s3)c2c1C | 30.1 |
| CCN(CC)CCN(Cc1ccc(-c2ccc(C(F)(F)F)cc2)cc1)C(=O)Cn1cc(Cc2cnn(C)c2)c(=O)nc1/C=C/c1cccc(F)c1F.O=C(O)C(O)C(O)C(=O)O | 19.6 |
| Cl.NC(=O)c1ccccc1Nc1nc(Nc2cccc(N3CCN(CCO)CC3)c2)ncc1Cl | 58.3 |

Query string: Given the molecule CC(CO)(CO)NCc1cc2c3ccccc3c(CNC(C)(CO)CO)cc2c2ccccc12.CS(=O)(=O)O , what is its reported Cytotox ratio Pf Male?
Result string: 15.0

Query string: Try this molecule too: Cc1ccc(C(C(=O)Nc2ccc(N3CCNCC3)c(Cl)c2)c2ccccc2)cc1 (centres unmarked)
Result string: 27.6

Query string: Request: C=CCNc1cc(-c2ccccn2)nc(-c2ccccn2)n1
Result string: 13.8

----------
% inhibition female (individual replicates) R1 for assorted compounds
- Tested on: P. falciparum female gametocytes
- assay-notes: P. falciparum Dual Gamete Formation Assay (PfDGFA), female readout (Pfs25-positive female gametes)
- Assay type: cell-based, Plasmodium falciparum NF54
- condition-description: PfDGFA at 2µM, 24h preincubation with gametocytes prior to induction of gametogenesis; replicate R1
Note to self: number, then unit, no commentary.

Recorded % inhibition female (individual replicates) R1, per entry:
| compound | val |
| --- | --- |
| CC1(C)N=C(N)N=C(N)N1OCc1cc(Cl)c(CON2C(N)=NC(N)=NC2(C)C)cc1Cl | 0.3% |
| CS(=O)(=O)CCNCc1ccc(-c2ccc3c(Nc4ccc(Cl)cc4F)ccnc3c2)o1 | 4.7% |
| [O-][S+]1c2ccccc2Sc2ccccc21 | 9.4% |
| O=C(C1CCCC1)N1CCOC(CCN2CCC(c3ccccc3)CC2)(c2ccc(Cl)c(Cl)c2)C1 (centres unmarked) | 8.8% |
| Cc1ccc2c(Cc3cnc(N)nc3N)cc(C)c(N)c2n1.Cl | 1.9% |
| O=c1c(NCCCN(Cc2ccc(F)cc2)c2ccccn2)c(NCc2ccncc2)c1=O | 6.5% |
| CNCCCCCCOc1ccc(CC(C)NCC(O)c2cccc(C(F)(F)F)c2)cc1.Cl (centres unmarked) | 10.7% |

Here is the next item to consider.
Query string: Would you mind telling me what % inhibition female (individual replicates) R1 value was observed for CCCCCN1CCCC1CNS(=O)(=O)c1cccc(C(=O)Nc2cccc(C#N)c2)c1.O=C(O)C(F)(F)F (centres unmarked) ?
Result string: 2.9%
